Values were extracted from patent US20260374818A1.

# Tested on: P. aeruginosa PAO1 biofilms
# testMethodNotes: Checkerboard biofilm synergy of AB103-D with antimicrobials, PAO1
# Assay type: cell-based, Pseudomonas aeruginosa
# assayConditions: in combination with AB103-D; PAO1
resultType: Fold Decrease in concentration of Antibiotic

compound	result
C/C(=C\C(=O)OCCCCCCCCC(=O)O)C[C@@H]1OC[C@H](C[C@@H]2O[C@H]2[C@@H](C)[C@H](C)O)[C@@H](O)[C@H]1O [Mupirocin]	No
C[C@H]1[C@H](NC(=O)/C(=N\OC(C)(C)C(=O)O)c2csc(N)n2)C(=O)N1S(=O)(=O)O [Aztreonam]	16-fold
C[C@@H](O)[C@H]1C(=O)N2C(C(=O)O)=C(S[C@@H]3CN[C@H](C(=O)N(C)C)C3)[C@H](C)[C@H]12 [Meropenem]	No
CCn1cc(C(=O)O)c(=O)c2cc(F)c(N3CCNCC3)cc21 [Norfloxacin]	8-fold

----------
# Tested on: Staphylococcus epidermidis
# testMethodNotes: MIC (broth microdilution) of peptides, S. epidermidis
# Format: cell-based
# assayConditions: mode of three biological replicates
Where a SMILES comes first, the peptide text is derived from it. [ ]: non-standard residue; d: D form.
resultType: MIC (µg/mL)
Express it in µg/mL; write the number only.

## Task Bench note: what MIC did CC[C@@H](C)[C@@H](NC(=O)[C@@H](C)NC(=O)[C@@H](CCCNC(=N)N)NC(=O)[C@@H](Cc1c[nH]c2ccccc12)NC(=O)[C@@H](CCCCN)NC(=O)[C@H](NC(=O)[C@@H](CCCNC(=N)N)NC(=O)[C@H](NC(=O)[C@H](NC(=O)[C@@H](CCCNC(=N)N)NC(=O)[C@H](NC(=O)[C@H](N)CCCNC(=N)N)C(C)C)C(C)C)[C@H](C)CC)C(C)C)C(N)=O [AB114-D, rvrvirvkwrai] (H-[dR][dV][dR][dV][dI][dR][dV][dK][dW][dR][dA][dI]-NH2) show?
## Result 0.4

----------
# Test system: P. aeruginosa PAO1
# testMethodNotes: Biofilm inhibition (at least 80%), P. aeruginosa
# Format: cell-based, Pseudomonas aeruginosa
# assayConditions: n = 4, BM2 minimal media, 18-24 hours, crystal violet
Where a SMILES comes first, the peptide text is derived from it. [ ]: non-standard residue; d: D form.
Below, each of the compounds is paired with its reported Peptide/Antibiotic Concentration where at least 80% of biofilm growth was inhibited value.
Write it as a number; the unit µg/mL goes unstated.

Known results for compounds:
compound	subjectOfTest	unitInfo	recordedNumber
CC[C@@H](C)[C@@H](NC(=O)[C@@H](C)NC(=O)[C@@H](CCCNC(=N)N)NC(=O)[C@@H](Cc1c[nH]c2ccccc12)NC(=O)[C@@H](CCC(N)=O)NC(=O)[C@H](N)C(C)C)C(=O)N[C@H](CCCNC(=N)N)C(=O)N[C@@H](C(=O)N[C@@H](C(=O)N[C@@H](C(=O)N[C@@H](C(=O)N[C@H](CCCNC(=N)N)C(N)=O)[C@H](C)CC)C(C)C)[C@H](C)CC)C(C)C [AB107-D, vqwrairvivir-NH2] (H-[dV][dQ][dW][dR][dA][dI][dR][dV][dI][dV][dI][dR]-NH2)	P. aeruginosa PAO1	µg/mL	4
CC[C@@H](C)[C@@H](NC(=O)[C@@H](C)NC(=O)[C@@H](CCCNC(=N)N)NC(=O)[C@@H](Cc1c[nH]c2ccccc12)NC(=O)[C@@H](CCC(N)=O)NC(=O)[C@H](N)C(C)C)C(=O)N[C@H](CCCNC(=N)N)C(=O)N[C@@H](C(=O)N[C@H](CCCNC(=N)N)C(=O)N[C@@H](C(=O)N[C@@H](C(=O)N[C@H](CCCNC(=N)N)C(N)=O)[C@H](C)CC)C(C)C)C(C)C [DJK5, vqwrairvrvir-NH2] (H-[dV][dQ][dW][dR][dA][dI][dR][dV][dR][dV][dI][dR]-NH2)	P. aeruginosa PAO1	µg/mL	8
O=C(O)c1cn(C2CC2)c2cc(N3CCNCC3)c(F)cc2c1=O	P. aeruginosa PAO1	µg/mL	0.125

The record that follows has no Peptide/Antibiotic Concentration where at least 80% of biofilm growth was inhibited shown yet.
## Task Tell me reported Peptide/Antibiotic Concentration where at least 80% of biofilm growth was inhibited for CC[C@@H](C)[C@@H](NC(=O)[C@@H](C)NC(=O)[C@@H](CCCNC(=N)N)NC(=O)[C@@H](Cc1c[nH]c2ccccc12)NC(=O)[C@@H](CCC(N)=O)NC(=O)[C@H](NC(=O)[C@@H](CCCNC(=N)N)NC(=O)[C@H](NC(=O)[C@H](NC(=O)[C@@H](CCCNC(=N)N)NC(=O)[C@H](NC(=O)[C@H](N)CCCNC(=N)N)C(C)C)C(C)C)[C@H](C)CC)C(C)C)C(N)=O [AB103-D, rvrvirvqwrai-NH2] (H-[dR][dV][dR][dV][dI][dR][dV][dQ][dW][dR][dA][dI]-NH2) , tested with P. aeruginosa PAO1.
## Result 2
